Cited source: patent US9403832B2

Below: a set of entries, each annotated with reported pIC50.
# assayedSystem: AAK1 (Homo sapiens, UniProt Q2M2I8)
# Construct: NP_055726.2
# Sequence (Q2M2I8 1-863 isoform Q2M2I8-2): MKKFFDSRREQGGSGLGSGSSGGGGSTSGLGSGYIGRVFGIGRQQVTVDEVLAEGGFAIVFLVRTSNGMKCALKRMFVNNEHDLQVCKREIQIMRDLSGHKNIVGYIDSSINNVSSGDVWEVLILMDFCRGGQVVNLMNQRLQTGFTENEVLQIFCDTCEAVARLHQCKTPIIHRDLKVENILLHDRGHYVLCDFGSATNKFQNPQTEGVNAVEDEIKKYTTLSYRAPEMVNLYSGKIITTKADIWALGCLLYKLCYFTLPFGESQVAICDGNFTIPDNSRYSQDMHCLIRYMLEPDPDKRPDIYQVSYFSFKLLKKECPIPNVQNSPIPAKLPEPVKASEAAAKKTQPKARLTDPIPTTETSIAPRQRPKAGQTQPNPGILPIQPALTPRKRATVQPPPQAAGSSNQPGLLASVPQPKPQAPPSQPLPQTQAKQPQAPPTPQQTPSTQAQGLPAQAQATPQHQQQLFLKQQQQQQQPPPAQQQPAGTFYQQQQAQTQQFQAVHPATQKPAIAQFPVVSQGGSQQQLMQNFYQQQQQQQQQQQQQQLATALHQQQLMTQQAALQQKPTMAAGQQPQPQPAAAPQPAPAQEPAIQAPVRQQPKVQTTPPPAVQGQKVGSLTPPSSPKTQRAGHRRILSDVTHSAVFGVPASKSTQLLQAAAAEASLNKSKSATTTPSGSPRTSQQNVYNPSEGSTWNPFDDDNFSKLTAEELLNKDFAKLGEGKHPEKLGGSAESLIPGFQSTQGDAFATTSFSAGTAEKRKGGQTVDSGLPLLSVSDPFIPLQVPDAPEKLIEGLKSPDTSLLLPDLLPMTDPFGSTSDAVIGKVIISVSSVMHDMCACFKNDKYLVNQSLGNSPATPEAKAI
# experiment: HEK281 cell-based assay (CBA)
# measurementParameters: HEK293F cells transfected with full length human AAK1 and AP2M1; phospho-mu2 Western blot; 3 hours incubation
# Method: HEK293F cells were cultured in media containing DMEM (Gibco, cat. #11965), 10% FBS (SAFC Biosciences, cat. #12103C), 1× GPS (glutamine, penicillin and streptomycin). On day one, cells were plated on a 10 cm dish so that they are ˜80% confluent at time of transfection. Roughly 12 million cells were in a 10 cm dish at time of transfection. On day two, each dish was transfected with 48 ug DNA and 144 ul Lipofectamine 2000 (Invitrogen, cat. #11668-019). […]
pIC50: −log10 of the molar value.

COc1ncccc1-c1cnn2ccc(N3CCN(C(=O)OC4CCOCC4)CC3)nc12
≥ 7.00
COc1ncccc1-c1cnn2ccc(N3CCN(C(=O)C4(N)CCCC4)CC3)nc12
≥ 8.00
CCCOC(=O)N1CCN(c2ccn3ncc(-c4cccnc4OC)c3n2)CC1
≥ 7.00
[2H]C1([2H])N(C(=O)OCCOC)C([2H])([2H])C([2H])([2H])N(c2ccn3ncc(-c4cccnc4OC)c3n2)C1([2H])[2H]
≥ 7.00
COc1nc(C)ccc1-c1cnn2ccc(N3CCN(C(=O)OC(C)(C)C)CC3)nc12
≥ 8.00

Problem: Report pIC50 for "COc1ncccc1-c1cnn2ccc(N3CC[C@H](N(C)C(=O)[C@@H](N)CC(C)C)C3)nc12" please.
Solution: ≥ 8.00

Problem: Report pIC50 for "COc1nc(C)ccc1-c1cnn2ccc(N(C)CCCN(C)C(=O)OC(C)C)nc12" please.
Solution: ≥ 7.00

Problem: Report pIC50 for "COc1ccc(F)cc1-c1cnn2ccc(N3CCN(C(=O)OC(C)(C)C)CC3)nc12" please.
Solution: ≥ 8.00

Problem: Report pIC50 for "COc1ncccc1-c1cnn2ccc(N3CCN(C(=O)N4CCCCC4)CC3)nc12" please.
Solution: ≥ 7.00

Problem: Report pIC50 for "COc1ncccc1-c1cnn2ccc(N(C)CCCN(C)C(=O)OC(C)C)nc12" please.
Solution: ≥ 7.00
